- TARGET: recombinant HLA-A*0201 molecule (HLA-A*0201 heavy chain refolded with beta-2 microglobulin) (human)
- ASSAY_EXPLANATION: ELISA-based HLA refolding assay: recombinant HLA-A*0201 heavy chain with b2m and graded doses of peptide
pKd: −log10 of the molar value.
MEASURED_METRIC: pKd

[a] ALFVRLLALA [IMA-TGFBI-001]
[b] ILDQKINEV [IMA-ODC-001]
Problem: Between item a and item b , which reported pKd is smaller? Let me know the label of the one you choose.
Solution: b
(b: 9.70, a: 12.00)
